Hey, just so you know, these numbers are from patent US9480259B2.

target: Arabidopsis thaliana SHMT; experiment: SHMT activity assay (ED50 SHMT), coupled with N5,N10-CH2-THF dehydrogenase, NADH at 340 nm; type: biochemical; details: Arabidopsis thaliana SHMT enzyme assay; values given as upper bounds
pEC50: −log10 of the molar value.
Record form. Attribute: pEC50. Fill in for each entry.

Sample records with pEC50:
> print(dat)
                                   molecule   value
1  Cc1n[nH]c2c1C(c1cc(C#N)cc(-c3ccc(C(=O)O)o3)c1)(C1(F)COC1)C(C#N)=C(N)O2 (stereo not shown)  > 5.00
2  Cc1n[nH]c2c1C(c1cc(CN)cc(N(C)C(=O)CCCC(=O)O)c1)(C(C)C)C(C#N)=C(N)O2 (stereo not shown)  > 6.00
3  Cc1n[nH]c2c1C(c1ccc(CCc3nnn[nH]3)c(-c3nnn[nH]3)c1)(C1CCC1)C(C#N)=C(N)O2 (stereo not shown)  > 7.00

Now let's try a different one.
Would you kindly share the measured pEC50 for Cc1n[nH]c2c1C(c1cc(C#N)cc(N(C)Cc3ccccc3)c1)(C1CCC1)C(C#N)=C(N)O2 (stereo not shown) ?
> 8.00

====

biological target: Arabidopsis thaliana SHMT; test: SHMT activity assay (ED50 SHMT), coupled with N5,N10-CH2-THF dehydrogenase, NADH at 340 nm; type: biochemical; conditions: Table 2; values given as upper bounds
Record form. Attribute: EC50. Fill in for each entry.

// for each compound in input: emit EC50
1. CCC1(c2ccc(F)cc2)C(C#N)=C(N)Oc2[nH]nc(C)c21 (stereo not shown) [Compound 2.2.]
2. Cc1n[nH]c2c1C(c1cc(Cl)cc(-c3cccc(NS(C)(=O)=O)c3)c1)(C1CCC1)C(C#N)=C(N)O2 (racemic) [Compound 2.527]
3. Cc1n[nH]c2c1C(c1ccc(OCCc3nnn[nH]3)c(Cl)c1)(C1CCC1)C(C#N)=C(N)O2 (stereo not shown) [Compound 2.646]
4. Cc1n[nH]c2c1C(c1cc(C#N)cc(OCC#N)c1)(C1CCC1)C(C#N)=C(N)O2 (stereo not shown) [Compound 2.471]
5. Cc1n[nH]c2c1C(c1cc(Cl)cc(C(F)(F)F)c1)(C1(F)COC1)C(C#N)=C(N)O2 (stereo not shown) [Compound 2.502]
6. COc1c(C#N)cc(C2(C3CCC3)C(C#N)=C(N)Oc3[nH]nc(C)c32)cc1C#N (stereo not shown) [Compound 2.486]
7. CCC1(c2ccc(OC(=O)c3c(Cl)cccc3Cl)c(C)c2)C(C#N)=C(N)Oc2[nH]nc(C)c21 (stereo not shown) [Compound 2.48.]

1. < 10000 nM
2. < 10 nM
3. < 10 nM
4. < 10 nM
5. < 10 nM
6. < 10 nM
7. < 10000 nM

====

molecular target: Arabidopsis thaliana SHMT; assay: SHMT activity assay (ED50 SHMT), coupled with N5,N10-CH2-THF dehydrogenase, NADH at 340 nm; assay type: biochemical; settings: Table 2; values given as upper bounds
pEC50: −log10 of the molar value.
result type: pEC50

Sample records with pEC50:
> print(dat)
                                   compound   value
1  Cc1n[nH]c2c1C(c1cc(Cl)cc(Cl)c1)(C(F)(F)F)C(C#N)=C(N)O2 (stereo not drawn) [Compound 2.88.]  > 6.00
2  Cc1n[nH]c2c1C(c1ccc(OCc3ccccc3)c(Cl)c1)(C1CC1)C(C#N)=C(N)O2 (stereo not drawn) [Compound 2.186.]  > 7.00

Now let's try a different one.
GET /values?readout=pEC50&system=Arabidopsis thaliana SHMT&item= Cc1n[nH]c2c1C(c1cc(Cl)cc(Cl)c1)(C1CC(F)(F)C1)C(C#N)=C(N)O2 (stereo not drawn) [Compound 2.652]
> 8.00

====

Record form. Attribute: EC50. Fill in for each entry.
biological target: Arabidopsis thaliana SHMT; assay: SHMT activity assay (ED50 SHMT), coupled with N5,N10-CH2-THF dehydrogenase, NADH at 340 nm; type: biochemical; details: Table 2; values given as upper bounds

Sample records with EC50:
> print(dat)
                                   compound          system.under.test  result.type      value
1  Cc1n[nH]c2c1C(c1cc(Cl)cc(-c3ccc(NS(=O)(=O)C(F)(F)F)cc3)c1)(C1CCC1)C(C#N)=C(N)O2 (stereo not shown)  Arabidopsis thaliana SHMT         EC50    < 10 nM
2  Cc1n[nH]c2c1C(c1cc(Cl)c(OCC(=O)O)c(Cl)c1)(C1CCC1)C(C#N)=C(N)O2 (stereo not shown)  Arabidopsis thaliana SHMT         EC50  < 1000 nM
3  Cc1n[nH]c2c1C(c1cc(C#N)cc(-c3cccc(C(=O)O)c3)c1)(C1(F)CC1)C(C#N)=C(N)O2 (stereo not shown) [Compound 2.510]  Arabidopsis thaliana SHMT         EC50    < 10 nM

// for each compound in input: emit EC50
1. COc1ccc(C2(C3CCC3)C(C#N)=C(N)Oc3[nH]nc(C)c32)cc1Cl (stereo not shown)
2. CCCC1(c2cc(Cl)cc(C#N)c2)C(C#N)=C(N)Oc2[nH]nc(COC)c21 (stereo not shown)

1: < 10 nM; 2: < 10000 nM

// for each compound in input: emit EC50
1. Cc1n[nH]c2c1C(c1cc(Cl)cc(-c3ccc(C(=O)O)cc3)c1)(C1CCC1)C(C#N)=C(N)O2 (stereo not shown)
2. N#CC1=C(N)Oc2[nH]nc(C3CC3)c2C1(c1ccc(Cl)cc1)C1CC1 (stereo not shown)
3. CCC1(c2cc(C(F)(F)F)cc(C(F)(F)F)c2)C(C#N)=C(N)Oc2[nH]ncc21 (stereo not shown)
4. COc1c(Cl)cc(C2(C3CCC3)C(C#N)=C(N)Oc3[nH]nc(C)c32)cc1C#N (stereo not shown)
5. Cc1n[nH]c2c1C(c1cc(Cl)cc(CCC(=O)O)c1)(C1(F)CC1)C(C#N)=C(N)O2 (stereo not shown)
6. CSc1ccc(C2(C(C)C)C(C#N)=C(N)Oc3[nH]nc(C)c32)cc1 (stereo not shown)
7. Cc1n[nH]c2c1C(c1ccc(O)c(Cl)c1)(C1CCC1)C(C#N)=C(N)O2 (stereo not shown)
8. CCCC1(c2cc(C#N)cc(C#N)c2)C(C#N)=C(N)Oc2[nH]nc(C)c21 (stereo not shown)

["< 10 nM", "< 10000 nM", "< 1000 nM", "< 10 nM", "< 100 nM", "< 100 nM", "< 10 nM", "< 10 nM"]

====

target: Arabidopsis thaliana SHMT; experiment: SHMT activity assay (ED50 SHMT), coupled with N5,N10-CH2-THF dehydrogenase, NADH at 340 nm; assay type: biochemical; settings: Table 2; values given as upper bounds
pEC50: −log10 of the molar value.
result type: pEC50

Sample records with pEC50:
> print(dat)
                                   molecule          system.under.test   value
1  CCCC1(c2cc(C#N)cc(C(F)(F)F)c2)C(C#N)=C(N)Oc2[nH]nc(C)c21 (stereo not shown)  Arabidopsis thaliana SHMT  > 8.00
2  Cc1n[nH]c2c1C(c1cc(Cl)cc(CC(=O)O)c1)(C1(F)CC1)C(C#N)=C(N)O2 (stereo not shown)  Arabidopsis thaliana SHMT  > 7.00
3  CCc1n[nH]c2c1C(c1ccc(OC)c(C(F)(F)F)c1)(C1CC1)C(C#N)=C(N)O2 (stereo not shown)  Arabidopsis thaliana SHMT  > 6.00

// for each molecule in input: emit pEC50
1. COC(=O)c1cc(C(=O)O)cc(-c2cc(C#N)cc(C3(C4CCC4)C(C#N)=C(N)Oc4[nH]nc(C)c43)c2)c1 (stereo not shown)
2. CCC1(c2cccc(Cl)c2)C(C#N)=C(N)Oc2[nH]nc(C3CC3)c21 (stereo not shown)
3. Cc1n[nH]c2c1C(c1cc(Cl)cc(-c3ccsc3)c1)(C1CCC1)C(C#N)=C(N)O2 (stereo not shown)
4. CCC1(c2ccc(OC(C)(C)C)cc2)C(C#N)=C(N)Oc2[nH]nc(C)c21 (racemic)
5. N#CC1=C(N)Oc2[nH]nc(C3CC3)c2C1(c1cc(Cl)cc(Cl)c1)C1CCC1 (racemic)

> 7.00
> 5.00
> 8.00
> 5.00
> 7.00

// for each molecule in input: emit pEC50
1. CCOC(=O)COc1cc(Br)cc(C2(C3(F)CC3)C(C#N)=C(N)Oc3[nH]nc(C)c32)c1 (stereo not shown)
2. CCCC1(c2cc(C#N)cc(C#N)c2)C(C#N)=C(N)Oc2[nH]nc(COC)c21 (stereo not shown)
3. CCC1(c2cc(Br)c(C)c(Br)c2)C(C#N)=C(N)Oc2[nH]nc(C)c21 (stereo not shown)
4. N#CC1=C(N)Oc2[nH]ncc2C1(c1cccc(C(F)(F)F)c1)C1CCC1 (stereo not shown)
5. COC(=O)c1ccc(-c2cc(C#N)cc(C3(C4CCC4)C(C#N)=C(N)Oc4[nH]nc(C)c43)c2)cc1F (racemic)
6. CCC1(c2ccc(NC(C)=O)cc2)C(C#N)=C(N)Oc2[nH]nc(C)c21 (stereo not shown)
7. COC(=O)c1ccc(-c2cc(C#N)cc(C3(C4CCC4)C(C#N)=C(N)Oc4[nH]nc(C)c43)c2)cc1C(=O)OC (stereo not shown)
8. Cc1n[nH]c2c1C(c1cc(Cl)cc(Cl)c1)(C1CCCCC1)C(C#N)=C(N)O2 (stereo not shown)

> 7.00
> 5.00
> 8.00
> 6.00
> 8.00
> 5.00
> 8.00
> 5.00

// for each molecule in input: emit pEC50
1. Cc1n[nH]c2c1C(c1cc(C#N)cc(-c3cc(F)c(O)c(F)c3)c1)(C1CCC1)C(C#N)=C(N)O2 (stereo not shown)
2. CCCc1n[nH]c2c1C(CC)(c1cccc(Cl)c1)C(C#N)=C(N)O2 (stereo not shown)
3. Cc1n[nH]c2c1C(c1cc(Cl)cc(-c3cccc(C#N)c3)c1)(C1CCC1)C(C#N)=C(N)O2 (stereo not shown)
4. CCC1(c2cc(Br)cc(C#N)c2)C(C#N)=C(N)Oc2[nH]nc(C(C)C)c21 (stereo not shown)
5. COCOc1cc(C#N)cc(C2(C3CCC3)C(C#N)=C(N)Oc3[nH]nc(C)c32)c1 (stereo not shown)

1: > 8.00; 2: > 5.00; 3: > 8.00; 4: > 8.00; 5: > 8.00

Would you kindly share the measured pEC50 for CCC1(c2cc(Br)cc(C#N)c2)C(C#N)=C(N)Oc2[nH]nc(C)c21 (stereo not shown) ?
> 8.00
